Cited source for all entries: paper PMC4084896

Test system: AZ-GR cells
test_summary: MTT cytotoxicity test in AZ-GR cells
Type: cell-based, human
test_context: 24 h incubation; read-out: AZ-GR viability - MTT IC50
reported_property: IC50 (µM)
# number only, unit µM dropped from output

IC50 of CC(=O)N1CCN(c2ccc(OC[C@H]3CO[C@](Cn4ccnc4)(c4ccc(Cl)cc4Cl)O3)cc2)CC1 [(+)-KET, (2R,4S)-(+)-KET] on AZ-GR cells? 82.6

* * *

test_summary: MTT cytotoxicity test in AZ-AHR cells
Assay type: cell-based, human
test_context: human; 24 h incubation, six passages; read-out: AZ-AHR viability - MTT IC50
reported_property: IC50 at 24 h (µM)
# number only, unit µM dropped from output

• CC(=O)N1CCN(c2ccc(OC[C@@H]3CO[C@@](Cn4ccnc4)(c4ccc(Cl)cc4Cl)O3)cc2)CC1 [(−)-KET, (2S,4R)-(−)-KET] = 72.7

Consider the record given below.
# lookup: IC50 at 24 h of CC(=O)N1CCN(c2ccc(OCC3COC(Cn4ccnc4)(c4ccc(Cl)cc4Cl)O3)cc2)CC1 (racemic) 67.2

* * *

Recorded IC50 by entry
measured_target: glucocorticoid receptor (GR) (Homo sapiens, UniProt P04150)
Sequence (P04150 whole entry): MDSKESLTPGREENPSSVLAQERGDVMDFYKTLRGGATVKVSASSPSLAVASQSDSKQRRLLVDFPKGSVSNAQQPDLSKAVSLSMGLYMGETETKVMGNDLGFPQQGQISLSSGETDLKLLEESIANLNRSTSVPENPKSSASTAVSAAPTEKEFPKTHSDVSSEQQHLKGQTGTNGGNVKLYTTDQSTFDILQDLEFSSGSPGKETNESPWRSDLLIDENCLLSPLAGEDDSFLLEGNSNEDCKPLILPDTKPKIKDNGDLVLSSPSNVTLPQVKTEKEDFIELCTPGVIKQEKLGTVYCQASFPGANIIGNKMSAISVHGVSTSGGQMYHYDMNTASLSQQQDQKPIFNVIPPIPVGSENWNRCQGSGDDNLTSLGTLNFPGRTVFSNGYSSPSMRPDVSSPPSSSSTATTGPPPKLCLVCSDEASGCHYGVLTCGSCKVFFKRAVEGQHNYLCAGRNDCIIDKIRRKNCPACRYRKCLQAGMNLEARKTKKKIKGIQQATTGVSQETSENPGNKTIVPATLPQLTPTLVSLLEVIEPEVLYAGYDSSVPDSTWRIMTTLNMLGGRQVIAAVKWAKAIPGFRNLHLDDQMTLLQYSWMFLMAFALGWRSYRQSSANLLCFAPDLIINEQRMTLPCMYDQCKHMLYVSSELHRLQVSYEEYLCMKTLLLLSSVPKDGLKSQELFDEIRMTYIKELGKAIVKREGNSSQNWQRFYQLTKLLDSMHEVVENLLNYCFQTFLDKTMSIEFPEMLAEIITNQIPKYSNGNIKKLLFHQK
test_summary: GR gene reporter assay in AZ-GR cells, antagonist mode (DEX 100 nM)
test_context: 24 h, in the presence of DEX 100 nM
Protocol: A stably transfected gene reporter cell line AZ-AHR, derived from human hepatoma HepG2 cells transfected with a construct containing several AhR binding sites upstream of a luciferase reporter gene, was used for assessment of AhR transcriptional activity. […] After the treatments, cells were lysed and luciferase activity was measured. In parallel, cell viability was determined by conventional MTT test. […]
# number only, unit µM dropped from output

* CC(=O)N1CCN(c2ccc(OC[C@H]3CO[C@](Cn4ccnc4)(c4ccc(Cl)cc4Cl)O3)cc2)CC1 [(+)-KET, (2R,4S)-(+)-KET] | 29.6

Consider the record given below.
# lookup: IC50 of CC(=O)N1CCN(c2ccc(OC[C@@H]3CO[C@@](Cn4ccnc4)(c4ccc(Cl)cc4Cl)O3)cc2)CC1 [(−)-KET, (2S,4R)-(−)-KET] 26.7
